Hey, just so you know, these numbers are from patent US9815796B2.

# ASSAY_TARGET: Rhesus PDE2A3 (Macaca mulatta, UniProt B3VTJ2)
# Sequence (B3VTJ2 1-941): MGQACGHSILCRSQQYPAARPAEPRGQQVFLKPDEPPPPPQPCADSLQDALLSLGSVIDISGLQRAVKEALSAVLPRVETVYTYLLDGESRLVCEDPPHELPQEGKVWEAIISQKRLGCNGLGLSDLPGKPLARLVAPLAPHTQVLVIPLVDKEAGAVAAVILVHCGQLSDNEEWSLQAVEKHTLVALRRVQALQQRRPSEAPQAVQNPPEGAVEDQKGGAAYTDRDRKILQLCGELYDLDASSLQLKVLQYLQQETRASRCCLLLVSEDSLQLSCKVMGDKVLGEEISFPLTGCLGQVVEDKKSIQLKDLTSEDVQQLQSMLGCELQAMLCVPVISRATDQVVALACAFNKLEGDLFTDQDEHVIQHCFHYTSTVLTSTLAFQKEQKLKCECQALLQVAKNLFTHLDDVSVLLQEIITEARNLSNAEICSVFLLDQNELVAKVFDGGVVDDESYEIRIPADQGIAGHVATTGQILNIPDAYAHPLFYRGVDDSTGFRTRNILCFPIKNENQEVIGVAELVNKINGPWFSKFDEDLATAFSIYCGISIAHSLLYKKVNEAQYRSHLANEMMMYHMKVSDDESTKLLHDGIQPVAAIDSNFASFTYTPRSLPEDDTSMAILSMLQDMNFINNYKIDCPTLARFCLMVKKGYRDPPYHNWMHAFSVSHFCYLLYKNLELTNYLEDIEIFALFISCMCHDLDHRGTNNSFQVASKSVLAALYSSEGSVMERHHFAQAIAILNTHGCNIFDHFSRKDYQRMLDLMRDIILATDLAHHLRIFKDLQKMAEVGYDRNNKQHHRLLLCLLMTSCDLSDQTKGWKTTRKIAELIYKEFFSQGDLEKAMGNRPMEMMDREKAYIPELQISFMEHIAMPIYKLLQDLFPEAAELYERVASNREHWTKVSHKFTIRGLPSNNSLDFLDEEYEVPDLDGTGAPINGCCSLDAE
# TEST_DETAILS: PDE2 fluorescence polarization (IMAP FP) inhibition assay, rhesus enzyme
# Assay type: biochemical, rhesus macaque
# EXPERIMENTAL_SETUP: Rhesus PDE2, Lab B; read-out: Rhesus PDE2 Ki (nM) - Lab B
TEST_READOUT: Ki (nM)

1. COc1ccc(Cc2nc(C(=O)N[C@@H](c3ccc(OC(F)(F)F)c(F)c3)C(C)C)cc(=O)[nH]2)cc1F; 1.1
2. CC[C@@H](NC(=O)c1cc(=O)[nH]c(C(C)(C)c2ccc(OC)cc2)n1)c1ccc(OC(F)(F)F)c(F)c1; 42
3. Cc1nc(C(=O)NC(C)(C)c2ccc(C(F)(F)F)cc2Cl)cc(=O)[nH]1; 11
4. Cc1nc(C(=O)N[C@@H](c2ccc(OC(F)F)cc2)C2(C)CC2)cc(=O)[nH]1; 29
5. Cc1nc(C(=O)N[C@@H](c2ccc(OC(F)F)cc2)C(C)C)cc(=O)[nH]1; 44
